Tested on: U-251
test.name: NCI tumour cell line growth inhibition, 48 h
Calls of active or inactive are those of the source. Cut-off read from the data, not from the text of the source: active = GI50 up to about 1.1 µM and inactive = higher.

# compound, GI50
measured = [
    ("C/C(=N\\NC(=S)NC(C)C)c1nc2cccnc2[nH]1", "21.3 µM (inactive)"),
    ("COc1cc(Cl)c2c3c(c(C(C)=O)oc13)CCC2", "> 100 µM (inactive)"),
    ("N#CC1(C#N)C2(c3ccccc3)OC(c3ccccc3)(c3cc4ccccc4cc32)C1(C#N)C#N", "16.3 µM (inactive)"),
    ("COc1ccc(Nc2nc3cc(C(F)(F)F)ccc3n3cccc23)cc1OC", "15.2 µM (inactive)"),
    ("O=C(NN1C(=O)C(Cl)C1c1cccc(O)c1)c1ccccc1O (stereo not given)", "> 100 µM (inactive)"),
    ("O=c1[nH]c2cc(-c3ccccc3)nc-2nn1-c1c(Cl)cc(Cl)cc1Cl", "19.1 µM (inactive)"),
    ("c1ccc2c(c1)CCc1c(-c3n[nH]c4c3CCc3ccccc3-4)n[nH]c1-2", "> 100 µM (inactive)"),
    ("CCN1CCC(O)(c2ccc(Oc3ccc(Cl)cc3)cc2)C(C(=O)c2ccc(Oc3ccc(Cl)cc3)cc2)C1 (stereo not given)", "> 10 µM (inactive)"),
    ("O=C(O)C1=NN(c2ccc(S(=O)(=O)O)cc2)C2(C1)SCC(=O)N2c1nc2ccccc2s1 (stereo not given)", "> 100 µM (inactive)"),
    ("COc1cc2c(cc1OC)-c1cc3cc(OC)c(OC)cc3n1CC2", "37.7 µM (inactive)"),
]

* * *

Tested on: 786-0
test.name: NCI tumour cell line growth inhibition, 48 h
Active and inactive are the calls of the source. No stated cut-off is given here; in the data, active = GI50 up to about 1.1 µM and inactive = higher. Square brackets hold non-standard residues; d marks the D form. Peptide text beside a SMILES is read from it. * marks the point of attachment. Phe(4-NO2) = N[CH](Cc1ccc([N+](=O)[O-])cc1)C(=O)O; Boc = CC(C)(C)OC(=O)*
Classes used: active, inactive

# molecule, assigned.category
records = [
    ("COc1cc(Cn2c3c(c4cc(O)ccc42)Cc2ccccc2C3=O)cc(OC)c1", "inactive"),
    ("COc1ccc2c(c1)[n+]([O-])c(-c1nc3ccccc3s1)c(N)[n+]2[O-]", "inactive"),
    ("COC(=O)/C=C(C)/C=C\\COC1CCCCO1 (stereo unspecified)", "inactive"),
    ("Cc1c(C(=O)Nc2ccc(Cl)c(C(F)(F)F)c2)oc2cc(O)ccc2/c1=N\\NC(N)=S", "inactive"),
    ("CC(=O)OC1CC[C@@]2(C)C(=CC[C@@H]3[C@@H]2CC[C@]2(C)Nc4c(cnn4-c4ccc(F)cc4)C[C@@H]32)C1 (stereo partly specified)", "inactive"),
    ("COc1cc2c(cc1OC)-c1cc3cc(OC)c(OC)cc3n1CC2", "inactive"),
    ("O=C(C[N+]12CN3CN(CN(C3)C1)C2)c1ccc(-c2ccccc2)cc1", "inactive"),
    ("OC(CCN1CCN(CCOC(c2ccc(F)cc2)c2ccc(F)cc2)CC1)c1ccc(Br)cc1 (stereo unspecified)", "inactive"),
    ("CCOC(=O)C1=C(C)NC(=O)NC1c1ccc(OC)cc1OC (stereo unspecified)", "inactive"),
    ("CC1=C(O)C(=O)C2C(=O)C1C(C)C2c1ccc(C)cc1 (stereo unspecified)", "inactive"),
    ("COc1cc(C(c2cc3c(cc2O)OCO3)N2CCCC2)cc(OC)c1OC (stereo unspecified)", "inactive"),
    ("CNC(=O)CCC(NC(=O)OC(C)(C)C)C(=O)NC(Cc1ccc([N+](=O)[O-])cc1)C(=O)NCC(=O)NC (stereo unspecified) (Boc-Glu(NHMe)-[Phe(4-NO2)]-Gly-NHMe; configuration not given here)", "inactive"),
    ("COc1cccc(C(=O)O)c1Cc1cccc2ccccc12", "inactive"),
    ("COc1cccc2c1C(=O)C(=O)c1c-2oc(=O)c2cc(C)cc(OC)c12", "inactive"),
    ("COc1cc(/C=C\\c2ccc(Br)cc2)cc(OC)c1OC", "active"),
    ("c1ccc2c(Nc3ccc(Oc4ccc(Nc5c6ccccc6nc6ccccc56)cc4)cc3)c3ccccc3nc2c1", "active"),
    ("O=c1[nH]nc(Cc2ccccc2)n1CCCl", "inactive"),
    ("CC(C)OP(=O)(NC(=S)c1ccccc1)OC(C)C", "inactive"),
    ("COc1ccc2c3c(coc13)C(CCC(=O)O)CC2 (stereo unspecified)", "inactive"),
    ("CC(N/N=C(\\S)N1CCCCCC1)c1cccnn1 (stereo unspecified)", "active"),
    ("CCn1sc2ccccc2c1=O", "inactive"),
]

* * *

Test system: SNB-75
test.name: NCI tumour cell line growth inhibition, 48 h
Activity calls are given as the source filed them. No stated cut-off is given here; in the data, active = GI50 up to about 1.1 µM and inactive = higher.
Classes used: Y = active, N = inactive

# compound, assigned.category
rows = [
    ("Cc1ccc(C)c(COCCOCn2cc(Br)c(N)nc2=O)c1", "N"),
    ("O=C(/C=C/c1ccc[nH]1)c1ccccc1", "N"),
    ("C=C=C(C(=O)OC)[S+]([O-])c1ccccc1[N+](=O)[O-] (configuration not stated)", "N"),
    ("Cc1ccc([S+](c2ccccc2)c2cc(C)ccc2C)cc1 (configuration not stated)", "Y"),
    ("O=C1c2ccccc2S(=O)(=O)c2c1cccc2[N+](=O)[O-]", "N"),
    ("CN(C)CCNC(=O)c1cccc2ccc(-c3ccncc3)nc12", "N"),
    ("COC(=O)[C@]12CCC(=O)N1[C@H](C(=O)O)Cc1c2[nH]c2ccccc12", "N"),
    ("COC(=O)N1CCc2c(nc(N(C)CCO)[nH]c2=O)C1", "N"),
    ("CCc1cccc(C(C)C)c1NC(=O)C(=O)C(CC(=O)Nc1ccc(Cl)c(Cl)c1)C(=O)OC (configuration not stated)", "N"),
    ("N#Cc1c(-c2ccco2)cc(-c2ccccc2)nc1O", "N"),
    ("N#CC1(C#N)C2(c3ccccc3)OC(c3ccccc3)(c3cc4ccccc4cc32)C1(C#N)C#N", "N"),
    ("CCNc1ncnc2nn[nH]c12", "N"),
    ("O=[N+]([O-])/C(C(Cl)=C(Cl)Cl)=C(\\Nc1cccc2cccnc12)SCc1ccccc1", "N"),
    ("C=CCn1c(S)nnc1C12CC3CC(CC(C3)C1)C2", "N"),
    ("CNC(=O)CN(CC(=O)NC)C(=O)NC", "N"),
    ("CN1C(=O)n2c(nc3ccccc32)C(N=[N+]=[N-])(N=[N+]=[N-])C1=O (configuration not stated)", "N"),
    ("COC(=O)c1cc(O)ccc1NC(=O)c1ccc(O)cc1", "N"),
    ("O=c1[nH]c(Br)nc2c(N3CCCCC3)c[nH]c12", "N"),
    ("COc1ccc(NC(C)=O)c(C(O)CCNC(C)=O)c1 (configuration not stated)", "N"),
    ("CCC12C=CCN3CC[C@]4(C(=C(C(=O)OC)[C@@H]1Nc1ccn(C5OC(COC(C)=O)C(OC(C)=O)C5OC(C)=O)c(=O)n1)Nc1ccccc14)C32 (some centres not stated)", "N"),
    ("OC(c1cc2ccccc2[nH]1)C1(c2cccnc2)SCCCS1 (configuration not stated)", "N"),
    ("Cc1ccc(S(=O)(=O)N/N=C(\\c2nc3ccc(Cl)cc3nc2O)C(O)c2cccc([N+](=O)[O-])c2)cc1 (configuration not stated)", "N"),
]

* * *

Test system: SK-MEL-2
test.name: NCI tumour cell line growth inhibition, 48 h
Activity calls are given as the source filed them. Rule as the data show it: active = GI50 up to about 1.1 µM and inactive = higher.
Classes used: active, inactive

# compound, assigned.category
records = [
    ("O=C(O)CCc1nc2ccccc2[nH]1", "inactive"),
    ("O=C1/C(=C/c2ccc(O)c(O)c2)CC/C1=C\\c1ccc(O)c(O)c1", "inactive"),
    ("CN(C)c1ccc(/C=C/C(=O)c2cc(C(C)(C)C)c(O)c(C(C)(C)C)c2)cc1", "active"),
    ("CC1(C)[C@@H]2CC[C@@]1(C)CN(CCC[N+](C)(C)C)C2", "inactive"),
    ("COC(=O)C1=C(C(=O)OC)SC(=CC#CC=C2SC(C(=O)OC)=C(C(=O)OC)S2)S1", "inactive"),
    ("N#CC(C#N)=Cc1c(O)ccc2ccccc12", "inactive"),
    ("Cc1ccc([Se][Se]c2ccc(C)cc2)cc1", "inactive"),
    ("C[C@H](CCc1nc(C#N)c(N)o1)[C@H]1CC[C@H]2[C@@H]3[C@@H](O)CC4C[C@@H](O)CC[C@]4(C)[C@H]3C[C@@H](O)[C@]12C (some centres undefined)", "inactive"),
    ("COc1cc(Cn2c3c(c4cc(O)ccc42)Cc2ccccc2C3=O)cc(OC)c1", "inactive"),
]

Each recorded value in this set is attributed to ChEMBL document CHEMBL1201862.
